Data provenance: BindingDB's records for doi:10.1021/jm00054a015

Attribute: IC50
Molecular target: Dimer of Gag-Pol polyprotein [489-587] (Human immunodeficiency virus 1)
Construct: 489-587
Test: Protease Inhibition Assay
Details: pH 5.5; 30 °C
Protocol: Sensitivity of HIV-1 protease activity to protease inhibitors was determined by a peptide substrate cleavage assay. Protease products were analyzed on a reverse-phase high-pressure liquid chromatograph.
METRIC: IC50

COMPOUND	SYSTEM	ASSAY_VALUE
O=C(N[C@@H](Cc1ccccc1)[C@@H](O)C[C@@H](Cc1ccccc1)C(=O)N[C@H]1c2ccccc2C[C@H]1O)O[C@H]1CCCOC1	Dimer of Gag-Pol polyprotein [489-587] (Human immunodeficiency virus 1)	< 0.03 nM
O=C(N[C@@H](Cc1ccccc1)[C@@H](O)C[C@@H](Cc1ccccc1)C(=O)N[C@H]1c2ccccc2C[C@H]1O)O[C@H]1CCOC1	Dimer of Gag-Pol polyprotein [489-587] (Human immunodeficiency virus 1)	< 0.03 nM
O=C(N[C@@H](Cc1ccccc1)[C@@H](O)C[C@@H](Cc1ccccc1)C(=O)N[C@H]1c2ccccc2C[C@H]1O)O[C@@H]1CCCOC1	Dimer of Gag-Pol polyprotein [489-587] (Human immunodeficiency virus 1)	< 0.03 nM
CC(C)(C)NC(=O)C1C[C@@H]2CCCC[C@@H]2CN1C[C@@H](O)[C@H](Cc1ccccc1)NC(=O)OC(C)(C)C (some centres undefined)	Dimer of Gag-Pol polyprotein [489-587] (Human immunodeficiency virus 1)	> 3000 nM
